- experimental.protocol: Metabolic stability in hepatocytes, SD rats
- Assay type: in vitro ADME
- test.settings: rat, cryopreserved hepatocytes

[
  {
    "compound": "C=C(F)C(=O)N1CCN(c2nc(OC[C@@]34CCCN3C[C@H](F)C4)nc3c2COC(c2c(F)c(N)cc(C)c2C(F)(F)F)C3)C[C@@H]1CC#N (stereo partly shown)",
    "half-life at 1 μM": "20.6 min"
  }
]

----------
- experimental.protocol: Pharmacokinetics by oral administration and intravenous injection in SD rats
- Format: in vivo
- test.settings: male, rat, plasma, oral, 9.7 mg/kg (8B), 9.8 mg/kg (17)

[
  {
    "compound": "C=C(F)C(=O)N1CCN(c2nc(OC[C@@]34CCCN3C[C@H](F)C4)nc3c2COC(c2c(F)c(N)cc(C)c2C(F)(F)F)C3)C[C@@H]1CC#N (stereo partly shown)",
    "AUC(0-t) [µM·h]": 0.995
  }
]

----------
- experimental.protocol: Metabolic stability in hepatocytes, human
- Format: in vitro ADME
- test.settings: cryopreserved hepatocytes, read-out: CLint(liver)
- Experimental: Purpose of the assay: Metabolic stabilities of assay compounds in hepatocytes of CD-1 mice, SD rats, beagle dogs, cynomolgus monkeys, and human were assayed, respectively. Procedure of the assay: Several 96-well sample precipitation plates were prepared and named T0, T15, T30, T60, T90, T120, TO-MC, T120-MC and blank substrates, respectively. […] The hepatocytes were resuspended in an appropriate volume of incubation medium, and the cell viability was calculated by Trypan Blue staining method. […]

[
  {
    "molecule": "C=C(F)C(=O)N1CCN(c2nc(OC[C@@]34CCCN3C[C@H](F)C4)nc3c2COC(c2c(F)c(N)cc(C)c2C(F)(F)F)C3)C[C@@H]1CC#N (stereo partly shown)",
    "CLint scaled at 1 μM (mL/min/kg)": 38.7
  }
]

----------
- experimental.protocol: Metabolic stability in hepatocytes, beagle dogs
- Type: in vitro ADME
- test.settings: dog, cryopreserved hepatocytes, read-out: CLint(liver)
assay.metric: CLint scaled at 1 μM (mL/min/kg)

[
  {
    "compound": "C=C(F)C(=O)N1CCN(c2nc(OC[C@@]34CCCN3C[C@H](F)C4)nc3c2COC(c2c(F)c(N)cc(C)c2C(F)(F)F)C3)C[C@@H]1CC#N (stereo partly shown)",
    "unit.tag": "mL/min/kg",
    "numeric.readout": 52.3
  }
]

----------
- experimental.protocol: In vitro stability in liver microsomes, human
- Format: in vitro ADME
- test.settings: 0.5 mg/mL
assay.metric: CLint scaled at 1 μM

[
  {
    "compound": "C=C(F)C(=O)N1CCN(c2nc(OC[C@@]34CCCN3C[C@H](F)C4)nc3c2COC(c2c(F)c(N)cc(C)c2C(F)(F)F)C3)C[C@@H]1CC#N (stereo partly shown) [Compound 17]",
    "assay.metric": "CLint scaled at 1 μM",
    "result": "61.1 mL/min/kg"
  }
]

----------
- experimental.protocol: Pharmacokinetics by oral administration and intravenous injection in SD rats
- Format: in vivo
- test.settings: male, SD, rat, plasma, iv, 2 mg/kg, intravenous injection, 2.0 mg/kg, read-out: Apparent volume of distribution, Vdss
- Protocol: 1) Assay on the Pharmacokinetics of the Assay Compounds by Oral Administration and Intravenous Injection in SD Rats The assay compound was mixed with […] (10% hydroxypropyl-β-cyclodextrin) solution. […] Drug concentration was analyzed by LC-MS/MS method, and pharmacokinetic parameters were calculated by Phoenix WinNonlin software (Pharsight, USA).
assay.metric: Vd (L/kg)

[
  {
    "compound": "C=C(F)C(=O)N1CCN(c2nc(OC[C@@]34CCCN3C[C@H](F)C4)nc3c2COC(c2c(F)c(N)cc(C)c2C(F)(F)F)C3)C[C@@H]1CC#N (stereo partly shown)",
    "numeric.readout": 10.6
  }
]

----------
- experimental.protocol: Pharmacokinetics by oral administration and intravenous injection in SD rats
- Type: in vivo
- test.settings: male, rat, plasma, oral, 9.7 mg/kg (8B), 9.8 mg/kg (17), read-out: Time-to-peak, Tmax

[
  {
    "compound": "C=C(F)C(=O)N1CCN(c2nc(OC[C@@]34CCCN3C[C@H](F)C4)nc3c2COC(c2c(F)c(N)cc(C)c2C(F)(F)F)C3)C[C@@H]1CC#N (stereo partly shown)",
    "Tmax [h]": 1.5
  }
]

----------
- experimental.protocol: In vitro stability in liver microsomes, SD rats
- Type: in vitro ADME
- test.settings: rat, 0.5 mg/mL
assay.metric: CLint scaled at 1 μM (mL/min/kg)

[
  {
    "compound": "C=C(F)C(=O)N1CCN(c2nc(OC[C@@]34CCCN3C[C@H](F)C4)nc3c2COC(c2c(F)c(N)cc(C)c2C(F)(F)F)C3)C[C@@H]1CC#N (stereo partly shown) [Compound 17]",
    "assay.metric": "CLint scaled at 1 μM",
    "numeric.readout": 108
  }
]

----------
- experimental.protocol: Pharmacokinetics by oral administration and intravenous injection in CD mice
- Format: in vivo
- test.settings: male, mouse, plasma, oral, 14.7 mg/kg (17), 10.3 mg/kg (8B)
assay.metric: AUC(0-t)

[
  {
    "compound": "C=C(F)C(=O)N1CCN(c2nc(OC[C@@]34CCCN3C[C@H](F)C4)nc3c2COC(c2c(F)c(N)cc(C)c2C(F)(F)F)C3)C[C@@H]1CC#N (stereo partly shown)",
    "result": "2.4 µM·h"
  }
]

----------
- experimental.protocol: Pharmacokinetics by oral administration and intravenous injection in SD rats
- Assay type: in vivo
- test.settings: male, rat, plasma, intravenous injection, 2.0 mg/kg

[
  {
    "compound": "C=C(F)C(=O)N1CCN(c2nc(OC[C@@]34CCCN3C[C@H](F)C4)nc3c2COC(c2c(F)c(N)cc(C)c2C(F)(F)F)C3)C[C@@H]1CC#N (stereo partly shown)",
    "AUC(0-t)": "0.653 µM·h"
  }
]

----------
- experimental.protocol: Pharmacokinetics by oral administration and intravenous injection in CD mice
- Type: in vivo
- test.settings: male, mouse, plasma, intravenous injection, 2.39 mg/kg (17), 2.0 mg/kg (8B), read-out: Half-life period, T1/2 (converted)
- Method: 2) Assay on the Pharmacokinetics of the Assay Compounds by Oral Administration and Intravenous Injection in CD Mice The assay compound was mixed with 5% dimethyl sulfoxide/95% (10% hydroxypropyl-β-cyclodextrin) solution. […] Drug concentration was analyzed by LC-MS/MS method, and pharmacokinetic parameters were calculated by Phoenix WinNonlin software (Pharsight, USA).
assay.metric: half-life (h)

[
  {
    "compound": "C=C(F)C(=O)N1CCN(c2nc(OC[C@@]34CCCN3C[C@H](F)C4)nc3c2COC(c2c(F)c(N)cc(C)c2C(F)(F)F)C3)C[C@@H]1CC#N (stereo partly shown)",
    "numeric.readout": 1
  }
]

----------
- experimental.protocol: Pharmacokinetics by oral administration and intravenous injection in CD mice
- Type: in vivo
- test.settings: male, mouse, plasma, oral, 14.7 mg/kg (17), 10.3 mg/kg (8B), read-out: Peak concentration, Cmax

[
  {
    "molecule": "C=C(F)C(=O)N1CCN(c2nc(OC[C@@]34CCCN3C[C@H](F)C4)nc3c2COC(c2c(F)c(N)cc(C)c2C(F)(F)F)C3)C[C@@H]1CC#N (stereo partly shown) [Compound 17]",
    "Cmax, nM": 1460
  }
]

----------
- experimental.protocol: In vitro stability in liver microsomes, SD rats
- Type: in vitro ADME
- test.settings: 1 μM, 0.5 mg/mL
CLint(mic) values, listed per item

[
  {
    "compound": "C=C(F)C(=O)N1CCN(c2nc(OC[C@@]34CCCN3C[C@H](F)C4)nc3c2COC(c2c(F)c(N)cc(C)c2C(F)(F)F)C3)C[C@@H]1CC#N (some centres unmarked)",
    "censoring.qualifier": "=",
    "CLint(mic) [µL/min/mg]": 60.2
  },
  {
    "compound": "C=C(F)C(=O)N1CCN(c2nc(OCC3CCCN3C)nc3c2COC(c2c(F)c(N)cc(C)c2C(F)(F)F)C3)CC1CC#N.Cl (single isomer, unassigned) [Compound 8B hydrochloride]",
    "censoring.qualifier": "<",
    "CLint(mic) [µL/min/mg]": 9.6
  }
]

----------
- experimental.protocol: In vitro stability in liver microsomes, human
- Format: in vitro ADME
- test.settings: 0.5 mg/mL

[
  {
    "compound": "C=C(F)C(=O)N1CCN(c2nc(OC[C@@]34CCCN3C[C@H](F)C4)nc3c2COC(c2c(F)c(N)cc(C)c2C(F)(F)F)C3)C[C@@H]1CC#N (stereo partly shown) [Compound 17]",
    "half-life at 1 μM (min)": 20.4
  }
]
